test system: Acinetobacter baumannii; assay: Inhibition of Acinetobacter baumannii AB5711 biofilm formation in 14-French silicone urethral catheter at 200 uM measured after overnight incubation by crystal violet staining-based spectrophotometry; assay type: functional, organism-based
The source made the active and inactive calls. No cut-off for these calls is given here.
Field 'call' accepts yes (active), no (inactive)

Solved cases (3 shown):
| molecule | cat |
| --- | --- |
| COc1cc(C(=O)NNC(=O)c2cccc(Cl)c2)cc(OC)c1OC | yes |
| NNC(=O)c1cc(O)c(O)c(O)c1 | yes |
| COc1cc(C(=O)NNC(=S)NC(C)(C)C)cc(OC)c1OC | yes |

Could you check what this test reported for COc1cc(C(=O)N2N=C(C3CC3)CC2(O)C(F)(F)F)cc(OC)c1OC (stereo not drawn) ? yes

Could you check what this test reported for COc1cc(C(=O)NNC(=O)c2ccc(S(=O)(=O)C3CCC(C)CC3)cc2)cc(OC)c1OC (stereo not drawn) ? no

Could you check what this test reported for COc1ccccc1C(=O)NNC(=O)c1cc(OC)c(OC)c(OC)c1 ? no

Could you check what this test reported for CCNC(=S)NNC(=O)c1cc(OC)c(OC)c(OC)c1 ? yes

Could you check what this test reported for COc1cc(C(=O)NN2c3ccccc3C(C)(C)C(C)(C)c3ccccc32)cc(OC)c1OC ? yes
